Measured values drawn from the supplement of paper PMC11196671 for this set.

- Assay summary: PET hydrolysis product formed (TPA+MHET+BHET, UV-Vis) per mg enzyme (mmol/mg enzyme); higher = more PET depolymerisation activity; extreme values may be limits of the assay
- Protocol conditions: PET substrate: cryPow; 70 °C; pH 6.5; 24 h
Quantity name: PET hydrolysis product formed

Example sequences with recorded PET hydrolysis product formed:
Residue codes | PET hydrolysis product formed
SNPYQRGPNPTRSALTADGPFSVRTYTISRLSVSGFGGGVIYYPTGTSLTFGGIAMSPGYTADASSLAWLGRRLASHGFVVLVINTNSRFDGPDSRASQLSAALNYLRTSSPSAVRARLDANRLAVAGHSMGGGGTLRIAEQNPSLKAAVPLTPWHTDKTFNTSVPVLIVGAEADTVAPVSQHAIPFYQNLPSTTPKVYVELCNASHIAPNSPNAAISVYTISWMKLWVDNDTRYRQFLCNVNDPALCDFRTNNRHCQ [LCC-ICCG RIP] | 0.0809
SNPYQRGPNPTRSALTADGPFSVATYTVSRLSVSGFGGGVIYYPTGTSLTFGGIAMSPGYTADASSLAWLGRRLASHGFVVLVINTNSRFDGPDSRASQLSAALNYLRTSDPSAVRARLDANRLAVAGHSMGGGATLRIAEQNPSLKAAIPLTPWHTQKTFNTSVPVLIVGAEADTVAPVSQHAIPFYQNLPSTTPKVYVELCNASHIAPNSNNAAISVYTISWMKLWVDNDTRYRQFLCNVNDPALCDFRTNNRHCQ [LCC-ICCG DAQI] | 0.0648

Query :: May I ask what PET hydrolysis product formed has been recorded for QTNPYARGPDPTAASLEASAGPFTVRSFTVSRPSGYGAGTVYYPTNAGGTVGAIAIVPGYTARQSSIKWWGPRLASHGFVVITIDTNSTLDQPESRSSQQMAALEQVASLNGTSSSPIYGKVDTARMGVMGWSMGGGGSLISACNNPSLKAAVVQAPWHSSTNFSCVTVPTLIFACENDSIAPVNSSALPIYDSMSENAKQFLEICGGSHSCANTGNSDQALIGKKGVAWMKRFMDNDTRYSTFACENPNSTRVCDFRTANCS [Z1-PETase] ?
Result :: 0.0331

* * *

- Assay summary: terephthalic acid (TPA) released, HPLC; higher = more TPA released; extreme values may be limits of the assay
- Protocol conditions: PET substrate: aFilm; 70 °C; pH 5.5; 24 h
Quantity name: terephthalic acid
Answer by giving the amount and then stating its unit.

Query :: May I ask what terephthalic acid has been recorded for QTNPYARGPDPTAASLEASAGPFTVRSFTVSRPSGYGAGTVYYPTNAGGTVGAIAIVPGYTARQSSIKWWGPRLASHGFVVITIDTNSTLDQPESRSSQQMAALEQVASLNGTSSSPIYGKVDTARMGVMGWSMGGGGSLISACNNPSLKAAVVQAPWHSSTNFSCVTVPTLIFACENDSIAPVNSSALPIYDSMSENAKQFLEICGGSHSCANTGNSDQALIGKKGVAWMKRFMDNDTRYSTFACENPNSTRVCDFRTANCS [Z1-PETase] ?
Result :: 0 mM

* * *

Measured PET hydrolysis product formed, listed per entry.
- Assay summary: PET hydrolysis product formed (TPA+MHET+BHET, UV-Vis) per mg enzyme (mmol/mg enzyme); higher = more PET depolymerisation activity; extreme values may be limits of the assay
- Protocol conditions: PET substrate: cryPow; 60 °C; pH 6.5; 24 h
# print the numeric value only

Example sequences with recorded PET hydrolysis product formed:
Residue codes | Value
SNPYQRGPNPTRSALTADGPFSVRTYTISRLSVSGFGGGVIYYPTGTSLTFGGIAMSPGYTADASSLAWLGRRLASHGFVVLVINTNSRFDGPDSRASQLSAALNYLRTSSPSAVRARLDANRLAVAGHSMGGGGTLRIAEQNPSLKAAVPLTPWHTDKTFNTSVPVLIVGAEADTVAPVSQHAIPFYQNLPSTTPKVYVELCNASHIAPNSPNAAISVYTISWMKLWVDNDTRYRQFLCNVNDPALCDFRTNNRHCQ [LCC-ICCG RIP] | 0.082
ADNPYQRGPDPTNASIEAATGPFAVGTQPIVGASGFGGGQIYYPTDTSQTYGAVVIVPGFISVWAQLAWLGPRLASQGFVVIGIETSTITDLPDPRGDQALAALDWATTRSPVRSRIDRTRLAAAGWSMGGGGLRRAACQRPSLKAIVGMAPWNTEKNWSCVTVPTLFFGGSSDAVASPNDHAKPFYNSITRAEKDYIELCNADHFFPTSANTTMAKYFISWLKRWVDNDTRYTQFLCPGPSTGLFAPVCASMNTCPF [CaPETaseM9] | 0.0476
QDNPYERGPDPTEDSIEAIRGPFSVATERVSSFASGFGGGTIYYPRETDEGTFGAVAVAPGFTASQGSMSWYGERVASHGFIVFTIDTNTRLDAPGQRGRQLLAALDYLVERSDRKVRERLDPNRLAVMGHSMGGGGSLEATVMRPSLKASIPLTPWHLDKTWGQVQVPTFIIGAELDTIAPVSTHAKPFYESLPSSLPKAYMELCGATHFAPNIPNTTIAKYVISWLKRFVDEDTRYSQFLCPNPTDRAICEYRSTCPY [Cut190*SS] | 0.0533

Let us examine a further case.
Query :: May I ask what PET hydrolysis product formed has been recorded for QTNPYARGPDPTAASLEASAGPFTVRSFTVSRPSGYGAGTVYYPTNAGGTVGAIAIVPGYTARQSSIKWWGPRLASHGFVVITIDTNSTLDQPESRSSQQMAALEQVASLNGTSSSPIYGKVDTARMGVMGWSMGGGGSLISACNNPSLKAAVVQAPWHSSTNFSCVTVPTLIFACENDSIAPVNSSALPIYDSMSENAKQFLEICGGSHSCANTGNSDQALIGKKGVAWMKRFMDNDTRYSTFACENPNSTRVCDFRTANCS [Z1-PETase] ?
Result :: 0.126

* * *

- Assay summary: BHET released, HPLC; higher = more BHET released; extreme values may be limits of the assay
- Protocol conditions: PET substrate: cryPow; 70 °C; pH 6.5; 24 h
Quantity name: BHET released (mM)
Give the number; mM is assumed, so skip it.

Example sequences with recorded BHET released:
Residue codes | BHET released (mM)
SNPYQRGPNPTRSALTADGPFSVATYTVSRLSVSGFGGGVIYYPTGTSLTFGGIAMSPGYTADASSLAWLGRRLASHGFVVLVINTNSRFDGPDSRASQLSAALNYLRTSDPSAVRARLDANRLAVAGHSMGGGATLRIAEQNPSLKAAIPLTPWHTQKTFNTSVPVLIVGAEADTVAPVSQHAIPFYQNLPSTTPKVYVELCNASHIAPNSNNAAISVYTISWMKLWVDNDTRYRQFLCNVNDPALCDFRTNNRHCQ [LCC-ICCG DAQI] | 0.00289
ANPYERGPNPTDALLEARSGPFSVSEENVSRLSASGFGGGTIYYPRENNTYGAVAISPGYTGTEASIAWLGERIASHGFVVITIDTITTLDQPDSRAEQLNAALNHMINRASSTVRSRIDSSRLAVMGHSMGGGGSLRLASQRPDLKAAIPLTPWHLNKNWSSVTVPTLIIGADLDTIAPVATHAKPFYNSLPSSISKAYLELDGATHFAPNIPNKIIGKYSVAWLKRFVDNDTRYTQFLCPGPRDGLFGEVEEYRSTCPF [TfCut2] | 0

Let us examine a further case.
Query :: May I ask what BHET released has been recorded for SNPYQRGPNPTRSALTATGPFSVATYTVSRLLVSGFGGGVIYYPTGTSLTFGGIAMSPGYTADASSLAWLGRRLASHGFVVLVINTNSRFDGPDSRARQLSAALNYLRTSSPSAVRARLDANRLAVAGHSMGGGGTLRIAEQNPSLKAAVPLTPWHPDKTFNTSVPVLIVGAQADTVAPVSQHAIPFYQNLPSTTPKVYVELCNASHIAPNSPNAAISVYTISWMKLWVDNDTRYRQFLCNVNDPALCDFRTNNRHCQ [LCC-ICCG I6M] ?
Result :: 0

* * *

- Assay summary: MHET released, HPLC; higher = more MHET released; extreme values may be limits of the assay
- Protocol conditions: PET substrate: aFilm; 70 °C; pH 4.5; 24 h
Quantity name: MHET released (mM)
Give the number; mM is assumed, so skip it.

Residue codes | MHET released / mM
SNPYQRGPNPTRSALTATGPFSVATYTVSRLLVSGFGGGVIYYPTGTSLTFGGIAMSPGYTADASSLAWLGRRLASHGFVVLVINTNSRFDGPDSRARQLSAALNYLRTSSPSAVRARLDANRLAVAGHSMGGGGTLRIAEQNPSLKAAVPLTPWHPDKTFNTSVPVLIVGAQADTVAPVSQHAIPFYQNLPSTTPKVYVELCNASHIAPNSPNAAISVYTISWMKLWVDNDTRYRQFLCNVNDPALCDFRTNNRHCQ [LCC-ICCG I6M] | 0

Query :: May I ask what MHET released has been recorded for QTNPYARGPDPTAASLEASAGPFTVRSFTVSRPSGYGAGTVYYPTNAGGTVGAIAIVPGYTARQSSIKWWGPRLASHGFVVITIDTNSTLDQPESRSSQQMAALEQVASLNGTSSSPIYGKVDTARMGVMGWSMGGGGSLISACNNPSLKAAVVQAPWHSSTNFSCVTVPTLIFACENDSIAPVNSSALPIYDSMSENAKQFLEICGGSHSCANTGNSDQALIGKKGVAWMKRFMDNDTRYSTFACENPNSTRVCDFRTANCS [Z1-PETase] ?
Result :: 0
